Assay: NCI Yeast Anticancer Drug Screen. Data for the mlh1 strain (AID 171);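 note: 0% = growth of vehicle-treated control cultures of the same strain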
Settings: S. cerevisiae mlh1 strain growth inhibition; at 11.0 µM; active compounds read high
Compounds without any hit were thinned out: in the full panel of roughly 79,000, 15% have a hit. Residues, ends and D or L forms follow the SMILES beside them. *: point of attachment. Fmoc = O=C(OCC1c2ccccc2-c2ccccc21)*; Boc = CC(C)(C)OC(=O)*
property.label: growth inhibition (%)

>>> reported_measurement("O=[N+]([O-])c1ccc(/C=C\\c2ccc3c(c2)OCO3)c([N+](=O)[O-])c1")
7
>>> reported_measurement("CCOC(=O)CC1(C)/C(=N\\Nc2ccc([N+](=O)[O-])cc2[N+](=O)[O-])CCC2C1CCC1(C)C(C(C)CCCC(C)C)CCC21 (stereo unspecified)")
-2
>>> reported_measurement("O=C(CCCN1CCC(Nc2ccc(F)cc2)(c2nnnn2C2CCCCC2)CC1)c1ccc(F)cc1")
-8
>>> reported_measurement("Cc1cc2nc3ccccc3n2c2ccccc12")
-7
>>> reported_measurement("NC(CS)C(=O)NCCNc1ccc(NCCNC(=O)C(N)CS)c2c1C(=O)c1c(O)ccc(O)c1C2=O (stereo unspecified)")
-33
>>> reported_measurement("O=C1C=C(NCCc2cc(Br)c(O)c(Br)c2)C(=O)c2ncccc21")
36
>>> reported_measurement("Nc1cc(Cl)ccc1Nc1ccccc1")
-31
>>> reported_measurement("c1ccc2nc3c(nc2c1)sc1ccccc13")
19
>>> reported_measurement("CCOC(=S)SSSC(=S)OCC")
41
>>> reported_measurement("COC(=O)c1ccccc1N=NNc1cccc(SC)c1")
17
>>> reported_measurement("O=[N+]([O-])c1cc[n+]([O-])c(Cl)c1")
30
>>> reported_measurement("C/C(=N\\OCC(O)CNCCSCc1ccccc1)c1ccccc1Cl (stereo unspecified)")
24
>>> reported_measurement("O=C(O)c1c2ccc(Cl)cc2nc2[nH]c(=O)[nH]c(=O)c12")
-29
>>> reported_measurement("O=C1NC(c2cccc(OCc3ccccc3)c2)Nc2ccccc21 (stereo unspecified)")
5
>>> reported_measurement("CC(C)(C)OC(=O)NCCCCC(NC(=O)C(Cc1c[nH]c2ccccc12)NC(=O)OCC1c2ccccc2-c2ccccc21)C(=O)O (stereo unspecified) (Fmoc-Trp-Lys(Boc)-OH; configuration not given here)")
-2
>>> reported_measurement("CCN(CC)C(=S)N/N=C(\\C)c1ccccc1O")
66
>>> reported_measurement("Cc1ccc(NC(Nc2ccc(C)cc2C)=C(C(Cl)=C(Cl)Cl)[N+](=O)[O-])c(C)c1")
35
>>> reported_measurement("CC(C)C(=O)CC(Sc1ccc(N)cc1)c1ccccc1 (stereo unspecified)")
7
>>> reported_measurement("c1ccc2c(c1)N=C1CCCC3CCCC123 (stereo unspecified)")
3
>>> reported_measurement("CC(C)OC(=O)NNc1cc(Cl)ccc1Cl")
41
>>> reported_measurement("N#CC1OB(O)c2ccccc21 (stereo unspecified)")
-6
>>> reported_measurement("CCOP(=O)(OCC)/C(C#N)=C/c1ccc(-c2ccc(F)cc2F)o1")
3
>>> reported_measurement("Cc1c2cc[n+](CCO)cc2c(C)c2c1[nH]c1ccc(O)cc12")
41
>>> reported_measurement("COc1cccc(/C=C2\\S/C(=N/Nc3nc(-c4ccc([N+](=O)[O-])cc4)cs3)NC2=O)c1O")
30
>>> reported_measurement("Cc1cccc(C)c1NC(=O)CCC(=O)C(C)C(=O)c1ccc(O)cc1 (stereo unspecified)")
-1
>>> reported_measurement("COC1=CCC23C(=O)C=CC(=O)C2(C1)C(=O)c1ccccc1C3=O (stereo unspecified)")
-2
>>> reported_measurement("O=C(O)c1cc2c(cc1S(=O)(=O)O)C1C(C3C2C2(Cl)C(Cl)=C(Cl)C3(Cl)C2(Cl)Cl)C2(Cl)C(Cl)=C(Cl)C1(Cl)C2(Cl)Cl (stereo unspecified)")
11
>>> reported_measurement("CCCCCCCSCC1C(=O)C23C(O)C1CCC2C12COC3(O)C(O)C1C(C)(C)CCC2O (stereo unspecified)")
93
>>> reported_measurement("CCN(CC)CCNc1ccc(C)c2sc3ccc(O)cc3c(=O)c12")
29
>>> reported_measurement("CC(=O)O[C@H]1CC[C@@]2(C)C(=CC[C@@H]3C2CC[C@]2(C)C(=O)NC(=O)CC32)C1 (stereo partly specified)")
57
>>> reported_measurement("O=C1c2ccccc2-c2ccc(N=Cc3ccccc3)cc21")
-5
